A collection of compounds and their measured survival
Tested on: DeltatarO mutant
procedure-summary: S. aureus survival, RN4220 and DeltatarO strains – OD600, teichoic acid synthesis inhibitors, primary screen (AID 463173)
assay-conditions: S. aureus RN4220 wild type/DeltatarO growth, OD600, 18 h, hits give low values, screened at 18.75 µg/mL (by protocol)
About 4,300 (8.3%) of roughly 52,000 compounds were called active. The sample holds actives, similar compounds and a random draw of the others, so the mix is not that of the screen.
reported-property: survival

1) CCc1ccc(CNC(=O)CSc2cc(=O)n(CC)c3ccccc23)cc1
87% (inactive)
2) COc1ccc(C2C=C(c3cccc(OC)c3)Nc3c(C(=O)Nc4ccccc4)cnn32)cc1 (configuration not stated)
52% (inactive)
3) COc1ccc(C)cc1N(C)C(=O)CCc1nc(-c2ccccc2F)no1
45% (inactive)
4) CCN(CCCNC(=O)c1cc2c(=O)n(CC)c3ccccc3c2s1)c1cccc(C)c1
42% (active)
5) CC1=C(C(=O)Nc2cccc(C(F)(F)F)c2)C(c2ccccn2)n2ncnc2N1 (configuration not stated)
102% (inactive)
6) CCC1Oc2ccccc2N(CC(=O)NCc2ccc(C)cc2)C1=O (configuration not stated)
78% (inactive)
7) Cc1ccccc1-c1nc(SCC(=O)NCc2ccco2)c2c(=O)n(C)c(=O)n(C)c2n1
71% (inactive)
8) CCn1c(=O)c2cc(C(=O)NCCc3cccc(C)c3)sc2c2ccccc21
70% (inactive)
9) CCN(CCCNC(=O)CSc1cc(=O)n(CC)c2ccccc12)c1cccc(C)c1
38% (active)
10) CCN(CCCNC(=O)CSc1cc(=O)n(CC)c2ccccc12)c1ccccc1
53% (inactive)
11) Cc1ccc(NC(=O)Cn2nc(C(F)(F)F)c3c2CCCC3)cc1
120% (inactive)
12) CCOC(=O)c1ccc(CN(Cc2ccc(Br)cc2)S(=O)(=O)c2cccc(Cl)c2C)cc1
84% (inactive)
13) Cc1ccc(OCc2n[nH]c(=S)n2C2CCCCC2)cc1
99% (inactive)
14) Cn1cc(C(=O)NCc2ccccc2)c(=O)c2cc(S(=O)(=O)N3CCCCCC3)ccc21
118% (inactive)
15) COc1ccc(-c2noc(CC(=O)N(C)c3cc(Cl)c(OC)cc3OC)n2)cc1
82% (inactive)
16) Cn1c(=O)cc(SCC(=O)NCCc2ccc(Cl)cc2)c2cc(Cl)ccc21
75% (inactive)
17) CCN(CCCNC(=O)CSc1cc(=O)n(C)c2cc(Cl)ccc12)c1cccc(C)c1
90% (inactive)
18) Cc1ccc(S(=O)Cc2ccc(C(=O)NC3CCCCCC3)o2)cc1 (configuration not stated)
121% (inactive)
19) CCC1Oc2ccc(C)cc2N(CC(=O)NCCc2ccccc2)C1=O (configuration not stated)
80% (inactive)
20) CCN(CC)C(=O)CSc1nnc(Cc2ccccc2)n1CC
50% (inactive)
21) CC1Oc2ccccc2N(CC(=O)NCc2ccccc2)C1=O (configuration not stated)
92% (inactive)
22) CCC1Oc2ccccc2N(CC(=O)NCc2ccccc2)C1=O (configuration not stated)
-1% (active)

---

System: DeltatarO mutant
procedure-summary: S. aureus survival, RN4220 and DeltatarO strains – OD600, teichoic acid synthesis inhibitors, primary screen (AID 463173)
assay-conditions: S. aureus RN4220 wild type/DeltatarO growth, OD600, 18 h, hits give low values, screened at 18.75 µg/mL (by protocol)
In all, about 52,000 compounds went through this assay and about 4,300 (8.3%) were called active. The full list was thinned out, with actives kept by preference.
Classes based on survival: one: < 70%; two: ≥ 70% and < 90%; three: ≥ 90%

1) Cc1cccc2cc(CN(C(=O)c3ccco3)C3CCCC3)c(=O)[nH]c12
one
2) COC(=O)c1sccc1S(=O)(=O)N(CC(=O)Nc1ccc(C)c(F)c1)c1ccc(C)c(C)c1
one
3) CC(Oc1ccc(F)cc1)C(=O)NCC1(N(C)C)CCCCC1 (stereo unspecified)
two
4) CC(C)NC(=O)CSc1nnc(Cc2ccccc2)n1C
two
5) COc1cccc2[nH]c(C(=O)NCc3ccc4c(c3)CCN4C(=O)c3ccc(F)cc3)cc12
two
6) Cc1ccc(NC(=O)C2CCCN(S(=O)(=O)c3cccc4cccnc34)C2)cc1 (stereo unspecified)
three
7) O=c1c2cn[nH]c2nc(SCc2cccc(Br)c2)n1-c1ccc(Cl)cc1
three
8) CC(=O)c1cc(-c2ccc(F)cc2)n(CCC(=O)NCc2ccc(C)cc2)c1C
two
9) Cc1ccc(NC(=O)Cn2cc(S(=O)(=O)c3ccccc3)c(=O)c3cc4c(cc32)OCO4)cc1
three
10) O=C(CSc1nnc(Cc2ccccc2)n1Cc1ccccc1)NCc1ccco1
one
11) COC(=O)c1sccc1S(=O)(=O)N(CC(=O)Nc1c(C)cccc1C)c1ccc(C)c(C)c1
three
12) CC(C)NC(=O)CSc1nnc(Cc2ccccc2)n1Cc1ccco1
one
13) O=C(CSc1nnc(Cc2ccccc2)n1Cc1ccco1)NC1CCCC1
one
14) CCOc1ccc(NC(=O)C2CCCN(S(=O)(=O)c3c(C)noc3/C=C/N(C)C)C2)cc1 (stereo unspecified)
three
15) COc1ccc(C)c2sc(N3CCN(C(=O)c4ccco4)CC3)nc12
one
16) CCn1c(SCC(=O)NC2CCCC2)nnc1-c1ccccc1
two
